tgt: dopamine D1 receptor (Homo sapiens, UniProt P21728)
Construct: Dopamine D1 receptor gene cloned in pcDNA 3.1 was kindly provided by Dr. Olivier Civelli; expressed in transfected cells
Sequence (P21728 whole entry): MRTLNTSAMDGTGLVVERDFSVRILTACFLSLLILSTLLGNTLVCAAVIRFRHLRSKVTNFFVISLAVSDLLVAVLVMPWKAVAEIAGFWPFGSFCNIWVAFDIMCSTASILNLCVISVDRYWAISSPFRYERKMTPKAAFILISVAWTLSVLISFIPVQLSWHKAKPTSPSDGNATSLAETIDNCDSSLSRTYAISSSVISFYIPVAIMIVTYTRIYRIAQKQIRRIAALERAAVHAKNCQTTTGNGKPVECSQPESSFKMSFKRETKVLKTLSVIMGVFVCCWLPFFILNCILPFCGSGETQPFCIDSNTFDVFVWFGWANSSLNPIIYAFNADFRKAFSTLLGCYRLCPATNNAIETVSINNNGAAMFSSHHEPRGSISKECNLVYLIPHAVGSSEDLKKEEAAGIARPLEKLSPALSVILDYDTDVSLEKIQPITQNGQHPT
test name: CRE-luciferase reporter gene assay in HEK-D1/CRE/Luc2P cells
Assay type: cell-based
experimental context: dopamine 2 nM, HEK-D1/CRE/Luc2P cells; read-out: % Maximal Inhibition Mean ± SD (N = 3), Luciferase
readout type: Emax (%)

>  <compound>
COc1cc2c(cc1OC)-c1cc3ccc(OC)c(OC)c3c[n+]1CC2 [Compound 8, Palmatine]

>  <unit tag>
%

>  <Emax>
93.9

$$$$
>  <compound>
COc1cc2c(cc1OC)-c1c(C)c3ccc(O)c(OC)c3c[n+]1CC2 [Compound 5, 13-methyldehydrocorydalmine]

>  <unit tag>
%

>  <Emax>
86

$$$$
>  <compound>
COc1cc2c(cc1OC)[C@H]1[C@@H](C)c3ccc(OC)c(OC)c3CN1CC2 [Compound 4, Corydaline]

>  <unit tag>
%

>  <Emax>
83.5

$$$$
>  <compound>
COc1cc2c(cc1O)C1Cc3ccc(OC)c(OC)c3C[N+]1(C)CC2 (stereo not shown) [Compound 10, N-methyltetrahydrocolumbamine]

>  <unit tag>
%

>  <Emax>
78.2

$$$$

====

tgt: human D1 receptors (Homo sapiens)
Construct: The cDNA plasmids of D1-like receptors were stably transfected into HEK 293T cells; expressed in transfected cells
test name: Fluorescent Ca2+ mobilization assay (FLIPR) in HEK 293T cells expressing D1 receptors and Gα15
Format: cell-based
experimental context: dopamine 500 nM, HEK-D1/Gα15 cells
readout type: % Maximal Inhibition Mean ± SD (N = 3), FLIPR (%)

>  <compound>
COc1cc2c(cc1OC)-c1c(C)c3ccc(O)c(OC)c3c[n+]1CC2 [Compound 5, 13-methyldehydrocorydalmine]

>  <observed value>
77.04

$$$$
>  <compound>
COc1cc2c(cc1OC)[C@H]1[C@@H](C)c3ccc(OC)c(OC)c3CN1CC2

>  <observed value>
90.32

$$$$
>  <compound>
COc1cc2c(cc1OC)-c1c(C)c3ccc(OC)c(OC)c3c[n+]1CC2 [Compound 7, Dehydrocorydaline]

>  <observed value>
90.61

$$$$
>  <compound>
COc1cc2c(cc1O)CC[n+]1cc3c(OC)c(OC)ccc3c(C)c1-2 [Compound 6, Dehydrocorybulbine]

>  <observed value>
94.38

$$$$
>  <compound>
COc1cc2c(cc1O)-c1cc3ccc(OC)c(OC)c3c[n+]1CC2

>  <observed value>
86.43

$$$$
>  <compound>
COc1cc2c(cc1OC)[C@@H]1Cc3ccc(OC)c(OC)c3CN1CC2 [Compound 2, Tetrahydropalmatine]

>  <observed value>
92.64

$$$$

====

tgt: human D1 receptors (Homo sapiens, UniProt P21728)
Construct: The cDNA plasmids of D1-like receptors were stably transfected into HEK 293T cells; expressed in transfected cells
Sequence (P21728 whole entry): as above
test name: Fluorescent Ca2+ mobilization assay (FLIPR) in HEK 293T cells expressing D1 receptors and Gα15
Type: cell-based
experimental context: inhibition of dopamine (500 nM) Ca2+ mobilization, HEK-D1/Gα15 cells; IC50 based on the degree of maximal inhibition; read-out: IC50 (μM) with 95% Confidence Intervals, FLIPR
Source text: We used a fluorescent Ca^2+ mobilization assay to further evaluate the hit compounds obtained from the luciferase reporter gene assay screens. […] With the coexpression of Gα15 protein, D1 receptors can be redirected to mediate intracellular calcium mobilization upon stimulation. Calcium levels were monitored using fluorometric imaging plate reader (FLIPR). The assay can also distinguish potential antagonists from agonists. […]
readout type: IC50 (µM)

>  <compound>
COc1cc2c(cc1OC)-c1c(C)c3ccc(O)c(OC)c3c[n+]1CC2 [Compound 5, 13-methyldehydrocorydalmine]

>  <IC50, µM>
3.08

$$$$

1: COc1cc2c(cc1OC)-c1c(C)c3ccc(OC)c(OC)c3c[n+]1CC2 [Compound 7, Dehydrocorydaline]
2: COc1cc2c(cc1OC)[C@H]1[C@@H](C)c3ccc(OC)c(OC)c3CN1CC2 [Compound 4, Corydaline]
3: COc1cc2c(cc1OC)[C@@H]1Cc3ccc(OC)c(OC)c3CN1CC2 [Compound 2, Tetrahydropalmatine]
4: COc1cc2c(cc1O)CC[n+]1cc3c(OC)c(OC)ccc3c(C)c1-2 [Compound 6, Dehydrocorybulbine]
Prompt: Sort the compounds on IC50; start with the lowest figure. List the labels in the requested order.
Completion: 4, 1, 3, 2
(4: 0.612 µM, 1: 1.53 µM, 3: 2.24 µM, 2: 3.36 µM)

====

tgt: human D1 receptors (Homo sapiens)
Construct: The cDNA plasmids of D1-like receptors were stably transfected into HEK 293T cells; expressed in transfected cells
test name: Fluorescent Ca2+ mobilization assay (FLIPR) in HEK 293T cells expressing D1 receptors and Gα15
Format: cell-based
experimental context: concentration-response, dopamine 500 nM, Figure 4B
readout type: antagonist profile in FLIPR assay

>  <compound>
COc1cc2c(cc1OC)-c1cc3ccc(OC)c(OC)c3c[n+]1CC2 [Compound 8, Palmatine]

>  <tgt>
human D1 receptors (Homo sapiens)

>  <readout type>
antagonist profile in FLIPR assay

>  <observed value>
weak inhibitory effects

$$$$
>  <compound>
COc1cc2c(cc1O)C1Cc3ccc(OC)c(OC)c3C[N+]1(C)CC2 (centres unmarked) [Compound 10, N-methyltetrahydrocolumbamine]

>  <tgt>
human D1 receptors (Homo sapiens)

>  <readout type>
antagonist profile in FLIPR assay

>  <observed value>
weak inhibitory effects

$$$$

====

tgt: dopamine D1 receptor (Homo sapiens, UniProt P21728)
Construct: Dopamine D1 receptor gene cloned in pcDNA 3.1 was kindly provided by Dr. Olivier Civelli; expressed in transfected cells
test name: CRE-luciferase reporter gene assay in HEK-D1/CRE/Luc2P cells
Type: cell-based
experimental context: dopamine 2 nM, HEK-D1/CRE/Luc2P cells; read-out: % Maximal Inhibition Mean ± SD (N = 3), Luciferase
readout type: Emax (%)

>  <compound>
COc1cc2c(cc1O)CC[n+]1cc3c(OC)c(OC)ccc3c(C)c1-2 [Compound 6, Dehydrocorybulbine]

>  <tgt>
dopamine D1 receptor (Homo sapiens, UniProt P21728)

>  <observed value>
97.5

$$$$
>  <compound>
COc1cc2c(cc1O)-c1cc3ccc(OC)c(OC)c3c[n+]1CC2 [Compound 9, Columbamine]

>  <tgt>
dopamine D1 receptor (Homo sapiens, UniProt P21728)

>  <observed value>
97.5

$$$$
>  <compound>
COc1cc2c(cc1OC)[C@@H]1Cc3ccc(OC)c(OC)c3CN1CC2 [Compound 2, Tetrahydropalmatine]

>  <tgt>
dopamine D1 receptor (Homo sapiens, UniProt P21728)

>  <observed value>
72.5

$$$$
>  <compound>
COc1cc2c(cc1OC)-c1c(C)c3ccc(OC)c(OC)c3c[n+]1CC2 [Compound 7, Dehydrocorydaline]

>  <tgt>
dopamine D1 receptor (Homo sapiens, UniProt P21728)

>  <observed value>
98.2

$$$$

====

tgt: dopamine D1 receptor (Homo sapiens)
Construct: Dopamine D1 receptor gene cloned in pcDNA 3.1 was kindly provided by Dr. Olivier Civelli; expressed in transfected cells
test name: CRE-luciferase reporter gene assay in HEK-D1/CRE/Luc2P cells
Assay type: cell-based
experimental context: inhibition of dopamine (2 nM) response, HEK-D1/CRE/Luc2P cells; IC50 based on the degree of maximal inhibition; read-out: IC50 (μM) with 95% Confidence Intervals, Luciferase
readout type: IC50 (µM)

Solved entries:
>  <molecule>
COc1cc2c(cc1O)C1Cc3ccc(OC)c(OC)c3C[N+]1(C)CC2 (stereo not drawn) [Compound 10, N-methyltetrahydrocolumbamine]

>  <unit tag>
µM

>  <IC50>
13.4

$$$$
>  <molecule>
COc1cc2c(cc1OC)[C@@H]1Cc3ccc(OC)c(OC)c3CN1CC2 [Compound 2, Tetrahydropalmatine]

>  <unit tag>
µM

>  <IC50>
0.644

$$$$

A: COc1cc2c(cc1O)CC[n+]1cc3c(OC)c(OC)ccc3c(C)c1-2 [Compound 6, Dehydrocorybulbine]
B: COc1cc2c(cc1OC)[C@H]1[C@@H](C)c3ccc(OC)c(OC)c3CN1CC2 [Compound 4, Corydaline]
C: COc1cc2c(cc1OC)-c1c(C)c3ccc(O)c(OC)c3c[n+]1CC2 [Compound 5, 13-methyldehydrocorydalmine]
D: COc1cc2c(cc1OC)-c1c(C)c3ccc(OC)c(OC)c3c[n+]1CC2 [Compound 7, Dehydrocorydaline]
Prompt: With regard to IC50, arrange the entries in ascending order, please. Order the labels as requested and list them.
Completion: A, D, B, C

====

tgt: dopamine D1 receptor (Homo sapiens, UniProt P21728)
Construct: Dopamine D1 receptor gene cloned in pcDNA 3.1 was kindly provided by Dr. Olivier Civelli; expressed in transfected cells
test name: CRE-luciferase reporter gene assay in HEK-D1/CRE/Luc2P cells
Assay type: cell-based
readout type: pIC50
pIC50 is defined as minus the log10 of a concentration measured in mol/L.

>  <compound>
COc1cc2c(cc1OC)-c1cc3ccc(OC)c(OC)c3c[n+]1CC2 [Compound 8, Palmatine]

>  <readout type>
pIC50

>  <observed value>
5.15

$$$$

Sample COc1cc2c(cc1O)-c1cc3ccc(OC)c(OC)c3c[n+]1CC2 [Compound 9, Columbamine] ; pIC50 observed: 5.92
